# Tested on: SNB-75 CNS
# Run Description: NCI-60 one-dose screen, 48 h
# Stated Conditions: 10 µM unless noted
This is part of a sample that, as a whole, favours compounds with a hit. Of some 83,000 tested, about 20% had one in any assay. Active and inactive are the calls of the source. The calls were made as follows: active = growth percent below 10; inactive = the rest.
Assign a class; possible classes are yes for active, no for inactive

# example entries with known answers
For this molecule, state the assay outcome: COC(=O)/C=C/c1cccc2c1C(=O)NC(C)(c1cc3cc4ccccc4cc3oc1=O)N2 (configuration not stated)
no

For this molecule, state the assay outcome: Cn1cc(-c2cc(N)n3nc(-c4cn(C)c5ccc(Cl)cc45)cc3n2)c2ccccc21
no

For this molecule, state the assay outcome: COc1ccc(NC(=O)[C@H](C)N)cc1C(=O)Nc1cccc(C2CC(=O)c3c(cc(OC)c(OC)c3OC)O2)c1 (some centres not stated)
no

For this molecule, state the assay outcome: NS(=O)(=O)c1ccc(-n2cc(-c3cccc(NC(=O)c4ccc(Cl)c(C(F)(F)F)c4)c3)nn2)cc1
yes

For this molecule, state the assay outcome: CC(=O)OCC1OC(OC2C(COC(C)=O)OC(n3cc(COc4ccc5ccc(=O)oc5c4)nn3)C(OC(C)=O)C2OC(C)=O)C(OC(C)=O)C(OC(C)=O)C1OC(C)=O (configuration not stated)
no

Others:
For this molecule, state the assay outcome: Cc1cc2nc3c4ccccc4n(CCCN(C)C)c3nc2cc1C
yes

For this molecule, state the assay outcome: O=C(COc1ccc(NC(=O)Nc2ccccc2)cc1)N=Nc1c(O)[nH]c2ccc([N+](=O)[O-])cc12
yes

For this molecule, state the assay outcome: COc1ccc2[nH]cc(-c3cc(N)n4nc(-c5cn(C)c6ccccc56)cc4n3)c2c1
yes

For this molecule, state the assay outcome: CC(=O)Nc1ccc(-c2cn(-c3cccc(C(=O)Nc4ccc(N5CCN(C)CC5)cc4)c3)nn2)cn1
no

----------
# System: SN12C renal
# Run Description: NCI-60 one-dose screen, 48 h
# Stated Conditions: 10 µM unless noted
Compounds without any hit were thinned out: in the full panel of roughly 83,000, 20% have a hit. The source made the active and inactive calls. The calls were made as follows: active = growth percent below 10; inactive = the rest.
Assign a class; possible classes are active, inactive

For this compound, state the assay outcome: CCS(=O)(=O)N1CCCC(C(=O)Nc2nc3ccc(NC(=O)c4ccc(F)c(OC)c4F)cc3s2)C1 (centres undefined)
inactive

Others:
For this compound, state the assay outcome: O=S(=O)(Nc1cccc(-n2cnc3cc(-c4ccc(O)cc4)ccc32)c1)C1CC1
inactive

For this compound, state the assay outcome: COc1cccc(-c2c(C#N)c(-c3ccc(Cl)cc3)nc3n[nH]c(-c4ccc(Cl)cc4)c23)c1
inactive

For this compound, state the assay outcome: C=C1CC[C@@H]2[C@]3(C)COC(c4cn(-c5ccccc5)nc4-c4cccc([N+](=O)[O-])c4)O[C@@H]3CC[C@@]2(C)[C@@H]1C/C=C1/C(=O)OC[C@H]1O (some centres undefined)
active

----------
# Test system: T-47D breast
# Run Description: NCI-60 one-dose screen, 48 h
# Stated Conditions: 10 µM unless noted
Compounds without any hit were thinned out: in the full panel of roughly 83,000, 20% have a hit. The source made the active and inactive calls. Rule for the calls: active = growth percent below 10; inactive = the rest.
Assign a class; possible classes are 1 (yes) = active, 0 (no) = inactive

For this compound, state the assay outcome: Cc1c(C(=O)NNC(=O)c2ccc(Cl)cc2)nnn1-c1ccc(Cl)cc1
0 (no)

For this compound, state the assay outcome: Cc1cc(=O)oc2cc(OCCCOc3ccc(/C=C/C(=O)Nc4ccccc4N)cc3)ccc12
1 (yes)

For this compound, state the assay outcome: CCC(C)(C)c1ccc(OCCCCCCN2CCN(c3ccncc3)CC2)cc1
1 (yes)

For this compound, state the assay outcome: Cc1cc2c(cc1Cl)C(=O)/C(=C/c1ccccc1)O2
1 (yes)

For this compound, state the assay outcome: CC(=O)Oc1ccc(/C=C/C(=O)N[C@@H](Cc2ccccc2)C(O)C(=O)NCc2ccccc2)cc1OC(C)=O (stereo partly specified)
0 (no)

Others:
For this compound, state the assay outcome: COc1cc2nc(SCc3ccccc3)n(-c3ccc(Cl)cc3)c(=O)c2cc1OC
0 (no)

----------
# Test system: LOX IMVI melanoma
# Run Description: NCI-60 one-dose screen, 48 h (100 = growth as untreated, 0 = no growth, -100 = all killed)
# Stated Conditions: 10 µM
The panel holds about 83,000 compounds, 20% with a hit somewhere; the sample as a whole holds those more often. Active and inactive are the calls of the source. Rule for the calls: active = growth percent below 10; inactive = the rest.
Examples of compounds with documented growth follow.

Observe how each entry below is paired with its result.
Give its growth value. Item: CC(=O)c1cc(C(=O)c2ccccc2)n2c1ccc1ccccc12
96.7% (inactive)

Give its growth value. Item: CCCCCCCCc1ccc(C(=O)Nc2ccc(C)cc2C(=O)O)cc1C
101% (inactive)

Give its growth value. Item: Cn1cc(-c2cc3nc(-c4cn(C)c5ncc(Br)cc45)cc(N)n3n2)c2ccccc21
-100% (active)

Give its growth value. Item: CCCCn1c(O)c(N=Nc2nc(-c3cc4ccccc4oc3=O)cs2)c2cc(Br)ccc21
94.7% (inactive)

Give its growth value. Item: O=C(C1=CNC(=S)NC1c1ccc(O)cc1)c1cc2ccccc2oc1=O (stereo not given)
91.5% (inactive)

Give its growth value. Item: Cc1cc(C)n(-c2ccc3nnc(-c4ccccc4)n3n2)n1
77.3% (inactive)

Give its growth value. Item: Cn1cc(-c2cc(N)n3nc(-c4cn(C)c5ncc(Br)cc45)cc3n2)c2cc(Br)cnc21
-100% (active)

Give its growth value. Item: Cc1cc(=O)oc2cc(OCCOc3ccc(/C=C/C(=O)Nc4ccccc4N)cc3)ccc12
-73.2% (active)

Give its growth value. Item: COc1ccc(C2(SCCNCc3cc(N(C)C)ccn3)c3ccccc3C=Cc3ccccc32)cc1
2.34% (active)

We now examine a further compound.
Give its growth value. Item: COc1ccc(C(=O)/C=C/c2ccc3ccccc3c2)cc1S(N)(=O)=O
-89.1% (active)

----------
# System: UACC-62 melanoma
# Run Description: NCI-60 one-dose screen, 48 h (100 = growth as untreated, 0 = no growth, -100 = all killed)
# Stated Conditions: 10 µM unless noted
About 83,000 compounds went through this panel and 20% of them were active in at least one assay; those are over-represented in the sample as a whole.
Endpoint: growth (%)
Enter your answer as a number in %; do not include the unit.

Observe how each entry below is paired with its result.
Give its growth value. Item: COc1ccc(-c2nc3cc(C)ccc3n2CC(=O)N=Nc2c(O)[nH]c3ccc(Br)cc23)cc1
-42.8

Give its growth value. Item: C=C1CCC2C3(C)COC(c4ccccc4F)OC3CCC2(C)C1CC(O)C1=CCOC1=O (centres undefined)
73.6

Give its growth value. Item: NS(=O)(=O)c1ccc(-n2cc(-c3cccc(NC(=O)c4cc(Cl)cc(Cl)c4)c3)nn2)cc1
69.6

Give its growth value. Item: COc1ccc(/C=C/c2nc3ccccc3n3c(-c4ccc(Cl)cc4)nnc23)cc1
81.3

Give its growth value. Item: COc1ccc2c(c1)c(/C=N/Nc1ccc3ccccc3n1)cn2C
20.6

Others:
Give its growth value. Item: N/C(=N\c1nc2ccccc2s1)NC(=O)Nc1ccc(Cl)cc1Cl
-49.8

Give its growth value. Item: CN1CCN(/C(=N\c2sc(-c3ccccc3)nc2-c2ccccc2)c2ccccc2)CC1
75.7

Give its growth value. Item: N/C(=N\N=C\c1ccc([N+](=O)[O-])cc1)c1c(N)nc(=S)[nH]c1-c1ccc(Cl)cc1Cl
84.7

Give its growth value. Item: Cn1cc(-c2cc(N)n3nc(-c4cn(C)c5ccc(Cl)cc45)cc3n2)c2ccccc21
98.2

----------
# System: SK-MEL-5 melanoma
# Run Description: NCI-60 one-dose screen, 48 h (100 = growth as untreated, 0 = no growth, -100 = all killed)
# Stated Conditions: 10 µM unless noted
This is part of a sample that, as a whole, favours compounds with a hit. Of some 83,000 tested, about 20% had one in any assay. Calls of active or inactive are those of the source. How the source made its calls: active means growth percent below 10; inactive means the rest.
Endpoint: growth

Observe how each entry below is paired with its result.
Give its growth value. Item: COc1cc2oc(-c3cccc(C(=O)Nc4ccc(Cl)cc4)c3)cc(=O)c2c(OCCNC(=O)[C@H](CCC(=O)OC(C)(C)C)NC(=O)OC(C)(C)C)c1OC
89.3% (inactive)

Give its growth value. Item: COc1cc2oc(-c3cccc(C(=O)Nc4cccc([N+](=O)[O-])c4)c3)cc(=O)c2c(OC)c1OC
43.4% (inactive)

Give its growth value. Item: C=C1CC[C@@H]2[C@]3(C)COC(c4cn[nH]c4-c4ccc(F)cc4)O[C@@H]3CC[C@@]2(C)[C@@H]1C/C=C1/C(=O)OCC1O (stereo not given in full)
-79% (active)

We now examine a further compound.
Give its growth value. Item: COc1cc2oc(-c3cccc(NC(=O)[C@H](Cc4ccccc4)NC(=O)OC(C)(C)C)c3)cc(=O)c2c(OC)c1OC
17.9% (inactive)
